Data origin, for the record: the nanobody polyreactivity screen of Harvey et al. (2022)

# protocol-description: yeast display, Sf9 membrane polyspecificity reagent, FACS + sequencing; frameworks hold sequencing errors
outcome-measure: polyreactivity (PSR sort gate)

>  <record-sequence>
QFQLVESGGGLVQAGGSLSLSCAASGSTLQSYAMGWYRQAPGKERELVAGIRISGGNTRYADSVKGRFTISRDNAKNTVYLQMNSLIPEDTAVYYCAALTGFYNLRPYGYWGQGTQVTVSS

>  <outcome-measure>
polyreactivity (PSR sort gate)

>  <result-value>
high polyreactivity

$$$$
>  <record-sequence>
QVQLVESGGGLVQAGGSLRLSCAASGFTFDINTMGWYRQAPGKERELVAAITYSGGSTYYADSVKGRFTISRDKAKNTVYLQMNSLKPEDTAVYYCATTWYFVASWYVAIYDYWGQGTQVTVSS

>  <outcome-measure>
polyreactivity (PSR sort gate)

>  <result-value>
low polyreactivity

$$$$
>  <record-sequence>
QVQLVESGGGLVQAGGSLRLSCAASGRTFAYNAMGWYRQAPGKERELVAAIRWSADSTYYADSVKGRFTISRDNAKNTVYLQMNSLKPEDTAVYYCARRRYVGAFSVATLDYWGQGTQVTVSS

>  <outcome-measure>
polyreactivity (PSR sort gate)

>  <result-value>
high polyreactivity

$$$$
>  <record-sequence>
QVQLVESGGGLVQAGGSLRLSCAASGFIFGSYAMGWYRQAPGKERELVAAINWSGGSTYYADSVKGRFTISRDNAKNTVYLQMNSLKPDDTAVYYCAADRTYYSFLYYPWVDFDYWGQGTQVTVSS

>  <outcome-measure>
polyreactivity (PSR sort gate)

>  <result-value>
high polyreactivity

$$$$
>  <record-sequence>
QVQLVESGGGLVQAGGSLRLSCAASGGIFLDYVMGWYRPATGKQRELVAAISGSGGTNYADSVKGRFTISRDNAKNTVYLQMNSLKPEDTAVYYCAAVGYYSYSYYTKVGVDYWGQGTQVTVSS

>  <outcome-measure>
polyreactivity (PSR sort gate)

>  <result-value>
high polyreactivity

$$$$
>  <record-sequence>
QVQLVESGGGLVQAGGSLRLSCAASGRTFHPYAMGWYRQAPGKERELVAAITISTNYADSVKGRFTISRDNAKNTVYLQMNSLKPEDTAVYYCNKDGTHEVYVGGYEDDYWGQGTQVTVSS

>  <outcome-measure>
polyreactivity (PSR sort gate)

>  <result-value>
low polyreactivity

$$$$
>  <record-sequence>
QVQLVESGGGLVQAGGSLRLSCAASGSIFLLYAMGWYRQAPGKERELVAAISLSTGNTYYADSVKGRFTISRDNAKNTVYLQMNSLKPEDTAVYYCAAEDYWSAYYWGQGTQVTVSS

>  <outcome-measure>
polyreactivity (PSR sort gate)

>  <result-value>
high polyreactivity

$$$$
>  <record-sequence>
QVQLVESGGGLVQAGGSLRLSCAASGFIFYKNAMGWYRQAPGKERQLVAAINFSTGRTYYADSVKGRFTISRDNAKNTVYLQMNSLKPEDTAVYYCASKSANPRKYYYWGQGTQVTVSS

>  <outcome-measure>
polyreactivity (PSR sort gate)

>  <result-value>
high polyreactivity

$$$$
>  <record-sequence>
QVQLVESGGGLVQTGGSLRLSCAASGSIFGEYAMGWYRQAPGKEREFVADITWSDGSTYYADSVKGRFTISRDNAKNTVYLQMNSLKPEDTAVYYCAADSVLDRPVLYLWPWYLGDYWGQGTQVTVSS

>  <outcome-measure>
polyreactivity (PSR sort gate)

>  <result-value>
low polyreactivity

$$$$
>  <record-sequence>
QVQLVESGGGLVQAGGSLLLSCDASGNTFIENDMGWYIQAHGKERELVDPIDTGGYTYYADSVKGRFTISRDNAKNTVYLQMNSLKPDDTAVYYCTAVGLYLYRYKFGYLGKIGPGYDYWGQGTQVTVSS

>  <outcome-measure>
polyreactivity (PSR sort gate)

>  <result-value>
low polyreactivity

$$$$

Continue with the sequence presented below.
stdin: So what does the record say about polyreactivity (PSR sort gate) for QVQLVESGGGLVQAGGSLRLICAASGSTFDINAMGWYRQAPGKERELVAAITWRSGRTYYADSVKGRFTISRDNAKNTVYLQMNSLKPEDTAVYYCAADDTSYYIYSYDYWGQGTQVTVSS ?
stdout: low polyreactivity
